target: p53 Y220C (Homo sapiens, UniProt P04637, Y220C); assay: Luciferase Reporter Assay (Luc), p53 response element, NClH1299 cells with inducible p53 Y220C; format: cell-based; details: luciferase reporter, NClH1299 inducible p53 Y220C, 6 hour; 10 uM tool compound as positive control
Where a name gives a salt, the structure may show the parent alone.
Exercise: for every item that follows, state its recorded Emax.

Consider the following illustrative entries.
CNC(=O)c1ccc(NCC#Cc2nc3c(N[C@@H]4CCC(=O)N(C)C4)cccn3c2SC(F)(F)F)c(OC)c1 ... 80 to 90%
CNC(=O)c1ccc(NCC#Cc2cc3c(N[C@@H]4CCN(C)C[C@@H]4F)cccn3c2SC(F)(F)F)c(OC)c1 ... > 90%
CNC(=O)c1ccc(F)c(NCC#Cc2nc3c(N[C@@H]4CCN(C)C[C@@H]4F)cccn3c2SC(F)(F)F)c1 ... > 90%
COc1cc(S(C)(=O)=O)ccc1NCC#Cc1nc2c(NC3CCN(C)CC3)cc(-c3ccccc3)cn2c1CC(F)(F)F [Example 34, formic acid salt] ... < 70%
CNC(=O)c1ccc(NCC#Cc2nn3c(N[C@@H]4CCN(C)C[C@@H]4F)cccc3c2CC(F)(F)F)c(OC)c1 ... 70 to 80%
COc1ccc(C(=O)N(C)C)cc1NCC#Cc1nc2c(N[C@@H]3CCN(C)C[C@@H]3F)cccn2c1SC(F)(F)F ... > 90%
CNC(=O)c1ccc(OC)c(NCC#Cc2cc3c(N[C@@H]4CNC[C@@H]4F)nccn3c2SC(F)(F)F)c1 ... > 90%
CNC(=O)c1ccc(NCC#Cc2cc3c(N[C@@H]4CCN(C)C[C@@H]4F)cccn3c2SC(F)F)c(OC)c1 ... > 90%
CNC(=O)c1ccc(NCC#Cc2nc3c(N[C@@H]4CCN(C)CC4(F)F)cccn3c2CC(F)(F)F)c(OC)c1 (single isomer, unassigned) ... < 70%
CNC(=O)c1ccc(NCC#Cc2nc3c(N[C@@H]4CCN(C)C[C@@H]4F)cc(F)cn3c2CC(F)(F)F)c(OC)c1 [Example 99, formic acid salt] ... 80 to 90%

Count: 5. Required value per item: Emax.
1. CCS(=O)(=O)c1ccc(NCC#Cc2nc3c(N[C@@H]4CCNC[C@@H]4F)cccn3c2SC(F)(F)F)c(OC)c1
2. CNC(=O)c1ccc(OC)c(NCC#Cc2nc3c(N[C@@H]4CCN(C)C[C@@H]4F)nccn3c2SC(F)(F)F)c1
3. CNC(=O)c1ccc(NCC#Cc2nc3c(N[C@H]4CCN(C)C(=O)C4)cccn3c2SC(F)(F)F)c(OC)c1
4. COc1cc(S(C)(=O)=O)ccc1NCC#Cc1nc2c(NC3CCN(C4CC4)CC3)cccn2c1CC(F)(F)F
5. CNC(=O)c1cccc(NCC#Cc2nc3c(N[C@@H]4CCN(C)C[C@@H]4F)cccn3c2SC(F)(F)F)n1

result:
1: 80 to 90%; 2: 80 to 90%; 3: > 90%; 4: < 70%; 5: 80 to 90%

Count: 8. Required value per item: Emax.
1. CCNC(=O)c1ccc(NCC#Cc2nc3c(N[C@@H]4CCN(C)C[C@@H]4F)cccn3c2SC(F)(F)F)c(OC)c1
2. CNC(=O)c1ccc(NCC#Cc2nc3c(N[C@@H]4CCN(C)C[C@@H]4F)cc(F)cn3c2SC(F)(F)F)c(OC)c1
3. CNC(=O)c1ccc(NCC#Cc2nn3c(N[C@@H]4CCN(C)C[C@@H]4F)nccc3c2SC(F)F)c(OC)c1
4. CC#Cc1nn2c(N[C@@H]3CCN(C)C[C@@H]3F)cccc2c1CC(F)(F)F
5. CNC(=O)c1ccc(NCC#Cc2nc3c(N[C@H]4CCc5ncnn5C4)cccn3c2SC(F)(F)F)c(OC)c1 (stereo in doubt)
6. COc1cc(C(=O)N2CCCC2)ccc1NCC#Cc1nc2c(N[C@@H]3CCN(C)C[C@@H]3F)cccn2c1CC(F)(F)F
7. COc1cc2c(cc1NCC#Cc1nc3c(N[C@@H]4CCN(C)C[C@@H]4F)cccn3c1SC(F)(F)F)CNC2=O
8. CNC(=O)c1ccc(NCC#Cc2nc3c(N[C@@H]4CCN(C)C[C@@H]4F)cccn3c2SC(F)(F)F)c(OCCOC)c1

result:
["80 to 90%", "80 to 90%", "> 90%", "< 70%", "70 to 80%", "< 70%", "80 to 90%", "80 to 90%"]

Count: 3. Required value per item: Emax.
1. COc1cc(S(C)(=O)=O)ccc1NCC#Cc1nc2c(NC3CCN(C)CC3)cc(N)cn2c1CC(F)(F)F
2. COc1cc(S(C)(=O)=O)ccc1NCC#Cc1nc2c(NC3CCN(CCS(C)(=O)=O)CC3)cccn2c1CC(F)(F)F
3. COC[C@H](O)CN1CCC(Nc2cccn3c(CC(F)(F)F)c(C#CCNc4ccc(S(C)(=O)=O)cc4OC)nc23)CC1

result:
["< 70%", "80 to 90%", "70 to 80%"]

Hey, p53 Y220C (Homo sapiens, UniProt P04637, Y220C) data for "COC[C@@H](O)CN1CCC(Nc2cccn3c(CC(F)(F)F)c(C#CCNc4ccc(S(C)(=O)=O)cc4OC)nc23)CC1" : Emax came out at 70 to 80%

----------
target: p53 Y220C mutant protein (amino acid residues 94-293) (Homo sapiens, UniProt P04637, Y220C); construct: p53 Y220C mutant protein (amino acid residues 94-293); assay: Thermal Shift Assay (TSA), dTM; format: binding; conditions: thermal shift, 100 uM compound; read-out: TSA P53 Y220C dTM (100 uM)
Exercise: for every item that follows, state its recorded ΔTm at 100 µM.

Consider the following illustrative entries.
CNC(=O)c1ccc(NCC#Cc2nc3c(N[C@H]4CCn5nccc5C4)cccn3c2SC(F)(F)F)c(OC)c1 ... 5 to 10 °C
CCOc1cc(C(=O)NC)ccc1NCC#Cc1nc2c(N[C@@H]3CCN(C)C[C@@H]3F)cccn2c1CC(F)(F)F ... 5 to 10 °C
CN1CC[C@@H](Nc2cccn3c(CC(F)(F)F)c(C#CCNc4ccc(S(C)(=O)=O)cc4)nc23)[C@@H](F)C1 ... 5 to 10 °C
COc1cc2c(cc1NCC#Cc1nc3c(N[C@@H]4CCN(C)C[C@@H]4F)cccn3c1SC(F)(F)F)CNC2=O ... ≥ 10 °C
C=CC(=O)Nc1cc(NC2CCN(C)CC2)c2nc(C#CCNc3ccc(C(=O)NC)cc3OC)c(CC(F)(F)F)n2c1 ... < 1 °C

Count: 6. Required value per item: ΔTm at 100 µM.
1. CNC(=O)c1ccc(NCC#Cc2nc3c(N[C@@H]4CCN(C)C[C@@H]4F)cccn3c2CC(F)(F)F)c(OCCOC)c1
2. CNC(=O)c1ccc(OC)c(NCC#Cc2nc3c(NC4CC5(C4)CN(CC(F)F)C5)cccn3c2SC(F)(F)F)c1
3. CNC(=O)c1ccc(NCC#Cc2nc3c(N[C@@H]4CCc5ncnn5C4)cccn3c2SC(F)(F)F)c(OC)c1 (stereo in doubt)
4. COc1cc(S(C)(=O)=O)ccc1NCC#Cc1nc2c(N[C@@H]3C[C@H]4CC[C@H](N4)[C@@H]3F)cccn2c1SC(F)(F)F
5. COc1cc2c(cc1NCC#Cc1nc3c(N[C@@H]4CCN(C)C[C@@H]4F)cccn3c1CC(F)(F)F)CCNC2=O
6. COc1cc(C(=O)N2CCC2)ccc1NCC#Cc1nc2c(N[C@@H]3CCN(C)C[C@@H]3F)cccn2c1SC(F)(F)F

result:
≥ 10 °C
≥ 10 °C
≥ 10 °C
≥ 10 °C
≥ 10 °C
≥ 10 °C

----------
target: p53 Y220C mutant protein (amino acid residues 94-293) (Homo sapiens, UniProt P04637, Y220C); construct: p53 Y220C mutant protein (amino acid residues 94-293); assay: Surface Plasmon Resonance (SPR) assay, Kd_kinetic; format: binding
pKd: −log10 of the molar value.
RECORDED ENDPOINT: pKd

Lab note: measured pKd of CNC(=O)c1ccc(OC)c(NCC#Cc2nc3c(NC4CC5(C4)CN(CC(F)F)C5)cccn3c2SC(F)(F)F)c1 [Example 204] was > 8.00

----------
Exercise: for every item that follows, state its recorded Emax.
target: p53 Y220C (Homo sapiens, UniProt P04637, Y220C); assay: Luciferase Reporter Assay (Luc), p53 response element, NClH1299 cells with inducible p53 Y220C; format: cell-based; settings: Emax; luciferase reporter, NClH1299 inducible p53 Y220C, 6 hour

Consider the following illustrative entries.
CN1CC[C@@H](Nc2cccn3c(SC(F)(F)F)c(C#CCNc4ccc(P(C)(C)=O)cc4)cc23)[C@@H](F)C1 [Example 385] ... 80 to 90%
CNC(=O)c1ccc(OC)c(NCC#Cc2nn3c(N[C@@H]4CN(C)C[C@@H]4F)cccc3c2SC(F)(F)F)n1 [Example 253] ... 80 to 90%
CNC(=O)c1ccc(OC)c(NCC#Cc2cc3c(N[C@@H]4CCN(C)C[C@@H]4F)cccn3c2SC(F)(F)F)n1 [Example 345] ... 80 to 90%
CNC(=O)c1cnc(OC)c(NCC#Cc2nc3c(N[C@@H]4C[C@H]5CC[C@H](N5)[C@@H]4F)cccn3c2SC(F)(F)F)c1 [Example 264] ... 70 to 80%
CNC(=O)c1cnc(OC)c(NCC#Cc2nc3c(N[C@@H]4CCN(C)C[C@@H]4F)cccn3c2SC(F)F)c1 [Example 278] ... 70 to 80%

Count: 6. Required value per item: Emax.
1. C[C@H](O)CNC(=O)c1ccc(NCC#Cc2cc3c(N[C@@H]4CCN(C)C[C@@H]4F)cccn3c2SC(F)(F)F)cc1 [Example 431]
2. CNS(=O)(=O)c1ccc(OC)c(NCC#Cc2cc3c(N[C@@H]4CCN(C)C[C@@H]4F)nccn3c2SC(F)(F)F)c1 [Example 335]
3. CNC(=O)c1ccc(NCC#Cc2cc3c(N[C@@H]4CCN(C5COC5)C[C@@H]4F)nccn3c2SC(F)(F)F)c(OC)c1 [Example 350]
4. CNC(=O)c1ccc(OC)c(NCC#Cc2nc3c(N[C@@H]4CCN(C)C[C@@H]4F)cccn3c2SC(F)(F)F)c1F [Example 320]
5. CNC(=O)c1cnc(OC)c(NCC#Cc2cc3c(N[C@@H]4CNC[C@@H]4F)nccn3c2SC(F)(F)F)c1 [Example 313]
6. CNC(=O)c1ccc(NCC#Cc2nc3c(NC4CCS(=O)(=O)C4)cccn3c2SC(F)(F)F)c(OC)c1 (single isomer, unassigned) [Example 322]

result:
1. > 90%
2. 80 to 90%
3. > 90%
4. 70 to 80%
5. 80 to 90%
6. > 90%

Count: 2. Required value per item: Emax.
1. CNS(=O)(=O)c1ccc(NCC#Cc2cc3c(N[C@@H]4CCN(C)C[C@@H]4F)cccn3c2SC(F)(F)F)c(OC)c1 [Example 360]
2. COc1ccc(C(N)=O)nc1NCC#Cc1nn2c(N[C@@H]3CCN(C)C[C@@H]3F)cccc2c1SC(F)(F)F [Example 235]

result:
< 70%
80 to 90%

Lab note: measured Emax of CNC(=O)c1ccc(OC2COC2)c(NCC#Cc2cc3c(N[C@@H]4CCN(C)C[C@@H]4F)nccn3c2SC(F)(F)F)c1 [Example 336] was > 90%
